Biological target: T1, human ARG1 (Homo sapiens, UniProt P05089)
T1 construct: Avi tag (N); His10 (after a GGG linker) (C); made in house; host or cells: E. coli BL21 (DE3)
T1 sequence (P05089 with tags, fused parts or gaps): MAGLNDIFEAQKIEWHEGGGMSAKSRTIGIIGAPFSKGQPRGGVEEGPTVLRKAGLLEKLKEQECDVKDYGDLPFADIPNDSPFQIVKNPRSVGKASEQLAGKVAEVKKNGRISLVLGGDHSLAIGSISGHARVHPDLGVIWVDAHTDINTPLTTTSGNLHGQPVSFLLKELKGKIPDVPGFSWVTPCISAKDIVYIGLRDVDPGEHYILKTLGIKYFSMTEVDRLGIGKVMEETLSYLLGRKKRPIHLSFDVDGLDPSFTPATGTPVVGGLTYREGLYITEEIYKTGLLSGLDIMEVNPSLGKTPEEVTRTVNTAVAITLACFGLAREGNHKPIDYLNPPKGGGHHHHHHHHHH
Assay: Bio-Layer Interferometry (OctetRED) binding, human ARG1
Conditions: Fab analyte up to 120 nM, screening assay on anti-His surface

MOLECULE	Results, binding to human ARG1 (BLI)
C0021022: anti-ARG2 antibody, VH SEQ ID NO: 42, VL SEQ ID NO: 47 (antibody, listed as Homo sapiens, V domains shown, C0021022) VH: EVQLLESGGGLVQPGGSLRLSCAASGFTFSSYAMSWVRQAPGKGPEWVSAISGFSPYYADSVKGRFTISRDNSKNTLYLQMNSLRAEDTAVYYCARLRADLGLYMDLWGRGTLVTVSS VL: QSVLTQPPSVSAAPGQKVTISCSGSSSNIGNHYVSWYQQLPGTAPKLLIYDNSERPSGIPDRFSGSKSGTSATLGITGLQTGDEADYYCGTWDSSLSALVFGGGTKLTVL	No binding observed
C0021177: anti-ARG2 antibody, VH SEQ ID NO: 322, VL SEQ ID NO: 327 (antibody, listed as Homo sapiens, V domains shown, C0021177) VH: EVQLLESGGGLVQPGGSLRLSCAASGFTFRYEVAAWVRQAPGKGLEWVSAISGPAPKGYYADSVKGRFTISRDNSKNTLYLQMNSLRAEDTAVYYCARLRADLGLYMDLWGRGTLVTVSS VL: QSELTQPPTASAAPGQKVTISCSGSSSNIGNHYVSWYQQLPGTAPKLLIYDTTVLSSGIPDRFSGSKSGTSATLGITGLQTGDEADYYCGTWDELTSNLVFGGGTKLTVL	No binding observed
